So I've got HepSE_hepatitis readings for Hepatotoxicity, take a look.
Numbers only.

# annotated cases, reported HepSE_hepatitis shown
[
  {
    "molecule": "O=NN(CCCl)C(=O)NC1CCCCC1",
    "HepSE_hepatitis": 0
  },
  {
    "molecule": "CN(C)CC(c1ccc(O)cc1)C1(O)CCCCC1 (centres undefined)",
    "HepSE_hepatitis": 0
  },
  {
    "molecule": "Cc1cc2c(s1)Nc1ccccc1N=C2N1CCN(C)CC1",
    "HepSE_hepatitis": 1
  },
  {
    "molecule": "C=CC1=C(C(=O)O)N2C(=O)[C@@H](NC(=O)/C(=N\\O)c3csc(N)n3)[C@H]2SC1",
    "HepSE_hepatitis": 1
  },
  {
    "molecule": "CC(=O)[C@H]1CC[C@H]2[C@@H]3CCC4=CC(=O)CC[C@]4(C)[C@H]3CC[C@]12C",
    "HepSE_hepatitis": 1
  }
]

Would you be so kind as to report HepSE_hepatitis for each listed record?
1. NC(=O)c1cnccn1 [PYRAZINAMIDE]
2. CC(=O)N(CC(O)CO)c1c(I)c(C(=O)NCC(O)CO)c(I)c(C(=O)NCC(O)CO)c1I (centres undefined) [IOHEXOL]
3. N[C@@H](C(=O)N[C@@H]1C(=O)N2C(C(=O)O)=C(Cl)CS[C@H]12)c1ccccc1 [CEFACLOR ANHYDROUS]
4. CC(C)[C@H]1CC[C@H](C(=O)N[C@H](Cc2ccccc2)C(=O)O)CC1 [NATEGLINIDE]

## Result
1. 0
2. 0
3. 1
4. 1
